System: KB
experiment-notes: Cytotoxicity against human KB cells after 48 hrs by sulforhodamine B based ELISA
Type: functional
Structures can show the parent of a compound that is named as a salt.
property-name: GI50 (nM)

INSERT INTO assay_data (compound, reported_result) VALUES
  ('COc1nc2c(c(OC)n1)C(c1ccc(F)c(OC)c1)C1=C(COC1=O)N2 (centres undefined)', 2200),
  ('COc1cccc2c1C(=O)c1c(O)c3c(c(O)c1C2=O)C[C@@](O)(C(=O)CO)C[C@@H]3O[C@H]1C[C@H](N)[C@H](O)[C@H](C)O1 [DOXORUBICIN HYDROCHLORIDE]', 130),
  ('COc1nc2c(c(OC)n1)C(c1cc(OC)c(OC)c(OC)c1)C1=C(COC1=O)N2 (centres undefined)', 170),
  ('COc1ccc(C2C3=C(COC3=O)Nc3onc(-c4ccc(Cl)cc4)c32)cc1O (centres undefined)', 2700),
  ('COc1cc(C2C3=C(COC3=O)Nc3ccc4cc[nH]c4c32)cc(OC)c1OC (centres undefined)', 2000),
  ('COc1ccc(C2C3=C(COC3=O)Nc3ccc4cc[nH]c4c32)cc1O (centres undefined)', 2200),
  ('COc1cc(C2C3=C(COC3=O)Nc3ccc4ncsc4c32)cc(OC)c1OC (centres undefined)', 2100),
  ('COc1cc(C2C3=C(COC3=O)Nc3ccc4cc(C)[nH]c4c32)cc(OC)c1OC (centres undefined)', 2000),
  ('COc1cc(C2C3=C(COC3=O)Nc3ccc4nn[nH]c4c32)cc(OC)c1OC (centres undefined)', 2900);

---

System: KB
experiment-notes: Cytotoxicity against human KB cells after 48 hrs by sulforhodamine B based ELISA
Type: functional
property-name: GI50 (nM)

INSERT INTO measurements (compound, property_name, u, reported_result) VALUES
  ('COc1cc(C2C3=C(COC3=O)Nc3ccc4cc[nH]c4c32)ccc1F (stereo not drawn)', 'GI50', 'nM', 170),
  ('COc1ccc(C2C3=C(COC3=O)Nc3ccc4cc(C)[nH]c4c32)c(F)c1 (stereo not drawn)', 'GI50', 'nM', 2200),
  ('COc1cc([C@@H]2c3cc4c(cc3[C@@H](O[C@@H]3O[C@@H]5CO[C@@H](C)O[C@H]5[C@H](O)[C@H]3O)[C@H]3COC(=O)[C@H]23)OCO4)cc(OC)c1O [ETOPOSIDE]', 'GI50', 'nM', 300);

---

experiment-notes: Inhibition of tubulin polymerization at 3 uM after 1 hr fluorescence analysis relative to control
property-name: inhibition

INSERT INTO results (compound, reported_result) VALUES
  ('COc1nc2c(c(OC)n1)C(c1cc(OC)c(OC)c(OC)c1)C1=C(COC1=O)N2 (centres undefined)', '63.7%'),
  ('COc1cc([C@@H]2c3cc4c(cc3[C@H](O)[C@H]3COC(=O)[C@H]23)OCO4)cc(OC)c1OC [PODOFILOX]', '80.7%'),
  ('COc1cc(C2C3=C(COC3=O)Nc3ccc4ncsc4c32)cc(OC)c1OC (centres undefined)', '49.4%'),
  ('COc1cc(C2C3=C(COC3=O)Nc3ccc4cc(C)[nH]c4c32)ccc1F (centres undefined)', '45.3%');

---

measured-target: Tubulin (Homo sapiens) (UniProt P68371+Q9H4B7+P0DPH7+P68366+Q13509+Q71U36+P04350+Q3ZCM7+P07437+P68363+Q9BQE3+Q6PEY2+Q13885+Q9BVA1+Q9BUF5)
experiment-notes: Inhibition of tubulin polymerization in human A549 cells assessed as disrupted microtubule organization at 1 uM after 48 hrs by immunohistochemistry
Assay type: cell-based
Active and inactive are the calls of the source. No cut-off for these calls is given here.
property-name: inhibition

INSERT INTO measurements (molecule, reported_result) VALUES
  ('COc1cc(C2C3=C(COC3=O)Nc3ccc4cc(C)[nH]c4c32)ccc1F (centres undefined)', 'Active'),
  ('COc1cc([C@@H]2c3cc4c(cc3[C@H](O)[C@H]3COC(=O)[C@H]23)OCO4)cc(OC)c1OC [PODOFILOX]', 'Active'),
  ('COc1cc(C2C3=C(COC3=O)Nc3ccc4ncsc4c32)cc(OC)c1OC (centres undefined)', 'Active'),
  ('COc1nc2c(c(OC)n1)C(c1cc(OC)c(OC)c(OC)c1)C1=C(COC1=O)N2 (centres undefined)', 'Active');

---

// GI50 lookup, one value per entry
Test system: MCF7
experiment-notes: Cytotoxicity against human MCF7 cells after 48 hrs by sulforhodamine B based ELISA
Format: functional
condition-parameters: MCF7, 48 h
property-name: GI50 (µM)

INSERT INTO assay_data (compound, measured_target, property_name, u, inequality_symbol, reported_result) VALUES
  ('COc1ccc(C2C3=C(COC3=O)Nc3ccc4nn[nH]c4c32)c(F)c1 (stereo unspecified)', 'MCF7', 'GI50', 'µM', '<', 0.1),
  ('COc1ccc(C2C3=C(COC3=O)Nc3ccc4cc(C)[nH]c4c32)c(F)c1 (stereo unspecified)', 'MCF7', 'GI50', 'µM', '<', 0.1),
  ('COc1cc(C2C3=C(COC3=O)Nc3ccc4nc(C)sc4c32)ccc1[N+](=O)[O-] (stereo unspecified)', 'MCF7', 'GI50', 'µM', '=', 0.15),
  ('COc1cc(C2C3=C(COC3=O)Nc3c2cc(OC)c(OC)c3OC)ccc1O (stereo unspecified)', 'MCF7', 'GI50', 'µM', '=', 2.9),
  ('COc1cc(C2C3=C(COC3=O)Nc3ccc4cn[nH]c4c32)ccc1F (stereo unspecified)', 'MCF7', 'GI50', 'µM', '=', 2.7),
  ('COc1cc(C2C3=C(COC3=O)Nc3ccc4cc(C)[nH]c4c32)ccc1F (stereo unspecified)', 'MCF7', 'GI50', 'µM', '=', 2.6);
